protocol_summary: protein stability index of a GFP-peptide fusion (GPS, HEK-293T) (PSI 1-6); higher = more stable;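 note: 24-mer peptide tiles fused after GFP, lentivirally expressed, FACS-sorted into six equal bins by GFP/DsRed ratio, decoded by Illumina sequencing, PSI is the read-weighted mean bin number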
measurement_context: treatment: DMSO; c terminus: a fixed tail appended
Label Not fulfilled if protein stability index falls below 4; label Fulfilled in every other case.

Problem: Entry AAFYKGYVPNMLGIIPYAGIDLAV [SLC25A25] : is its protein stability index no less than 4?
Solution: Not fulfilled

Problem: Entry MNCLPSNRTLWRLDLAGNNIPGDV [LRRC45] : is its protein stability index no less than 4?
Solution: Not fulfilled

Problem: Entry GEAQPGLPQEDPSTSQGCAQPQGA [FEM1A] : is its protein stability index no less than 4?
Solution: Fulfilled

Problem: Entry FPDGDDEFDSPHEDIVFETDHILE [STX11] : is its protein stability index no less than 4?
Solution: Fulfilled

Problem: Entry EIQREIGISNALHRLKLRLAIQEM [PPFIA4] : is its protein stability index no less than 4?
Solution: Not fulfilled

Problem: Entry EDEDIYKLRHDLKKTSITQQPSKH [PLK2] : is its protein stability index no less than 4?
Solution: Fulfilled

Problem: Entry KDFANTIPGHGGIMDRFDCQYLMA [CDS2] : is its protein stability index no less than 4?
Solution: Not fulfilled

Problem: Entry TDILPQMITLSEAYIQIWKRRDND [USP39] : is its protein stability index no less than 4?
Solution: Not fulfilled

Problem: Entry IETIKIIETEDQIDKKPVSEKTDE [MIA2] : is its protein stability index no less than 4?
Solution: Fulfilled

Problem: Entry RPWRAGVLAEGDNASRSLYPDAED [PSD2] : is its protein stability index no less than 4?
Solution: Fulfilled

Problem: Entry PKTQACSGSESPSDSGKDLPEPSK [MYCL] : is its protein stability index no less than 4?
Solution: Fulfilled

Problem: Entry VKQEIAEMRIPALNAYMKSLLSLP [NCF4] : is its protein stability index no less than 4?
Solution: Not fulfilled

Problem: Entry KMSNSFHGIRPPQLEQPEKMPVLK [RHOBTB3] : is its protein stability index no less than 4?
Solution: Fulfilled
